Please respond with reported percent inhibition of viability for every item in the list.
- Test system: KAI3 (IL-2 2.5 ng/mL);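 also: normalised to DMSO-only wells as negative and benzethonium chloride as positive control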
- run_description: percent inhibition of viability; higher = more inhibition
- settings: 72 h; 10000 nM
Just the number in %, nothing appended.

# percent inhibition of viability of Nc1cccc2c1CN(C1CCC(=O)NC1=O)C2=O (stereo unspecified) [Lenalidomide] (max concentration tested 100000 nM) = 10.5

Quick note, percent inhibition of viability for CN1CCN(CCOc2cc(OC3CCOCC3)c3c(Nc4c(Cl)ccc5c4OCO5)ncnc3c2)CC1 [Saracatinib] (max concentration tested 10000 nM) landed at 56.8

Field percent inhibition of viability (entry Cc1cc(Nc2cc(N3CCN(C)CC3)nc(/C=C/c3ccccc3)n2)n[nH]1 [ENMD-2076] (max concentration tested 10000 nM) ) reads 103

# percent inhibition of viability of CCc1c(C(=O)C(N)=O)c2c(OCC(=O)O)cccc2n1Cc1ccccc1 [Varespladib] (max concentration tested 10000 nM) = 21.5

Documented percent inhibition of viability of NC(=O)c1cccc2cn(-c3ccc([C@@H]4CCCNC4)cc3)nc12 [Niraparib] (max concentration tested 10000 nM) : 78.8

Memo: CCN(c1cc(-c2ccc(CN3CCOCC3)cc2)cc(C(=O)NCc2c(C)cc(C)[nH]c2=O)c1C)C1CCOCC1 [E7438] (max concentration tested 10000 nM) , reported percent inhibition of viability: -7.23

The recorded percent inhibition of viability for COc1ccc(S(=O)(=O)Nc2cccnc2Nc2ccc(O)cc2)cc1 [ABT-751] (max concentration tested 10000 nM) is 74.9

Lab book: percent inhibition of viability of N[C@@H]1CCCN(c2c(/C=C3\SC(=O)NC3=O)cccc2-c2ccccc2)C1 [AZD1208] (max concentration tested 10000 nM) noted as 34.3

So, CCc1cc(Nc2nccc(-c3c(-c4ccc(OC)c(C(=O)Nc5c(F)cccc5F)c4)nc4ccccn34)n2)c(OC)cc1N1CCC(N2CCN(S(C)(=O)=O)CC2)CC1 (max concentration tested 10000 nM) ? Its percent inhibition of viability was -1.06

# percent inhibition of viability of Cc1cc(Nc2cc(N3CCN(C)CC3)nc(Sc3ccc(NC(=O)C4CC4)cc3)n2)n[nH]1 [Tozasertib] (max concentration tested 10000 nM) = 71.8

Per the record, CC(C)(C#N)c1cc(Cn2cncn2)cc(C(C)(C)C#N)c1 [Anastrozole] (max concentration tested 10000 nM) has percent inhibition of viability of 4.8

Value of percent inhibition of viability reported for the compound CC(C)N(CCCNC(=O)Nc1ccc(C(C)(C)C)cc1)C[C@H]1O[C@@H](n2cc(Br)c3c(N)ncnc32)[C@H](O)[C@@H]1O [SGC0946] (max concentration tested 10000 nM) is 72.2

Entry O=C(NC1CCNCC1)c1n[nH]cc1NC(=O)c1c(Cl)cccc1Cl [AT7519] (max concentration tested 10000 nM) — recorded percent inhibition of viability = 94

percent inhibition of viability reading for Cc1c(Cn2c(C)nc3c(C(=O)O)cc(N4CCOCC4)cc32)cccc1C(F)(F)F (max concentration tested 10000 nM) : 37.9

For record CNCc1ccc(-c2[nH]c3cc(F)cc4c3c2CCNC4=O)cc1 [Rucaparib] (max concentration tested 10000 nM) the listed percent inhibition of viability is 43.5

Kindly note the recorded percent inhibition of viability for CN[C@@H]1C[C@H]2O[C@@](C)([C@@H]1OC)n1c3ccccc3c3c4c(c5c6ccccc6n2c5c31)C(=O)N[C@H]4O [UCN-01] (max concentration tested 10000 nM) , which is 107

// percent inhibition of viability lookup, compound = C[C@@H]1COC(Nc2ccc3ncnc(Nc4ccc(OCc5nccs5)c(Cl)c4)c3c2)=N1 [Varlitinib] (max concentration tested 10000 nM) , result: 9.75

// percent inhibition of viability value for CNc1nc(-c2ccc3c(N)n[nH]c3c2)cc(N2C[C@@H](C(=O)NC3CCCCC3)CC[C@H]2C)n1 (max concentration tested 10000 nM) : 22.3

Record summary for CC[C@H](CO)Nc1nc(NCc2ccccc2)c2ncn(C(C)C)c2n1 [Seliciclib] (max concentration tested 10000 nM) : reported percent inhibition of viability = 67.1

Measured percent inhibition of viability, Cc1nc(N)sc1-c1ccnc(Nc2ccc(N3CCOCC3)cc2)n1 [CYC-116] (max concentration tested 10000 nM) : 89.7

Note to self: percent inhibition of viability recorded for C[C@@H]1CN(Cc2ccc(F)cc2)[C@@H](C)CN1C(=O)c1cc2c(C(=O)C(=O)N(C)C)cn(C)c2cc1Cl [Talmapimod] (max concentration tested 10000 nM) was 32.1
